test: Inhibition of wild-type Acinetobacter baumannii DNA topoisomerase-4 mediated supercoiled pBR322 DNA relaxation by ethidium bromide based agarose gel electrophoresis
parameter.measured: log10 of IC50 (log10 of the value in nM)
Log10 applied to IC50; unit prior to transform: nM.

Look over these answered cases.
>  <compound>
COc1ccc2ncc(=O)n(C[C@H](N)[C@@H]3CC[C@@H](NCc4ccc5c(n4)NC(=O)CO5)CO3)c2n1

>  <parameter.measured>
log10 of IC50

>  <observed.result>
2.10

$$$$
>  <compound>
COc1ccc2nccc(C[C@H](N)[C@@H]3CC[C@@H](NCc4ccc5c(n4)NC(=O)CO5)CO3)c2n1

>  <parameter.measured>
log10 of IC50

>  <observed.result>
1.48

$$$$
>  <compound>
COc1ccc2ncc(F)c(C[C@H](O)[C@@H]3CC[C@@H](NCc4cc5c(nn4)OCCS5)CO3)c2n1

>  <parameter.measured>
log10 of IC50

>  <observed.result>
2.10

$$$$
>  <compound>
COc1ccc2ccc(F)c(C[C@H](N)[C@@H]3CC[C@@H](NCc4ccc5c(n4)NC(=O)CO5)CO3)c2n1

>  <parameter.measured>
log10 of IC50

>  <observed.result>
1.48

$$$$
>  <compound>
COc1ccc2ccc(=O)n(C[C@H](N)[C@@H]3CC[C@@H](NCc4ccc5c(n4)NC(=O)CO5)CO3)c2c1

>  <parameter.measured>
log10 of IC50

>  <observed.result>
2.10

$$$$
>  <compound>
COc1ccc2ccc(=O)n(C[C@H](O)[C@@H]3CC[C@@H](NCc4cc5c(cn4)OCCS5)CO3)c2n1

>  <parameter.measured>
log10 of IC50

>  <observed.result>
1.48

$$$$

Ask: What value of log10 of IC50 has been reported for the following compound? COc1ccc2ncc(F)c(CC(N)[C@@H]3CC[C@@H](NCc4ccc5c(n4)NC(=O)CO5)CO3)c2n1 (mixture of isomers)
Reply: 1.48

Ask: Fill blank: measured log10 of IC50 of the compound `COc1ccc2ccc(=O)n(C[C@H](O)[C@@H]3CC[C@@H](NCc4cc5c(nn4)OCCS5)CO3)c2n1` is ____.
Reply: 2.70
